Each entry below carries its reported Kd.
- target_or_system: T1, His-tagged human CTLA-4 (CT4-H5229; Acro Biosystems) (human, UniProt P16410 36-161)
- T1 construct: bought soluble protein; also called soluble human CTLA-4; recombinant human CTLA-4; not shown: His tag
- T1 sequence (P16410 36-161 limits assumed): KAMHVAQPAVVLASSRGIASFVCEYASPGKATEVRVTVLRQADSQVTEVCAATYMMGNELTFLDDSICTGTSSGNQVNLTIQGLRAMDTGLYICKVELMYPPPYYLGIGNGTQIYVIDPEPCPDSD
- method: SPR (Carterra)
Answer with a number only, understood to be in nM.

Example entries and their recorded answers appear below.
Task: Any idea what its Kd is? The binder is antibody A5 (L5H5) (antibody, V domains shown, also called aCTLA-4.28; CTLA4.A5) VH: QVQLVESGGGVVQPGRSLRLSCAASGFTFSSYGMHWVRQAPGKGLEWVAVIWYDGNNKYYADSVKGRFTISRDNSKNTLYLQMYSLRAEDTAVYYCARGGILAAGIFDYWGQGTLVTVSS VL: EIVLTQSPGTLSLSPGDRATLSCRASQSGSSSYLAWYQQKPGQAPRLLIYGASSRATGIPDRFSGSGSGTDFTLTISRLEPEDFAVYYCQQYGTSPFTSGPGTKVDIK
Output: 4.6

Task: Any idea what its Kd is? The binder is antibody A4 (L4H4) (antibody, V domains shown, also called aCTLA-4.29) VH: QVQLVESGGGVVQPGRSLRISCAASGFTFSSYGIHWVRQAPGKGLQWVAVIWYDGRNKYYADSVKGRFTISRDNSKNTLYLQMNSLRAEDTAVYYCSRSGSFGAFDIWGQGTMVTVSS VL: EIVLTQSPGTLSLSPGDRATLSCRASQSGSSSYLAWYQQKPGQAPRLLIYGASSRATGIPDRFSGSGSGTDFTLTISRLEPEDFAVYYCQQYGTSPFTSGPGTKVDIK
Output: 3

Task: Any idea what its Kd is? The binder is antibody A17 (L17H17) (antibody, V domains shown, also called aCTLA-4.17) VH: EVQLVESGGGLVQPGGSLRLSCAASGFTFSNYAMSWVRQAPGKGLEWVSAISGGGLSTYYADSVKGRFTISRDNSKNTLYLQMNSLRAEDTAVYYCAKDLLWLGFDYWGQGTLVTVSS VL: DIQMTQSPSSLSASVGDRVTITCRASQAIRNDLGWYQQKPGKAPKRLIYAASSLQSGVPPRFSGSGSGTEFTLTISSLQPEDFATYYCLQHNSYPLTFGGGTKVEIK
Output: 51

Next:
Task: Any idea what its Kd is? The binder is antibody A11 (L11H11) (antibody, V domains shown, also called aCTLA-4.31) VH: QVQLVESGGGVVQPGRSLRLSCAASGFTFSSYGMHWVRQAPGKGLEWVAVIWYDVGNKYYIDSVKGRFTISRDNSKNTLYLQMNSLRAEDTAVYYCARDYYGSGSPRHFDYWGQGTLVTVSS VL: DIQLTQSPSFLSASVGDRVTITCRASQGISSYLAWYQQKPGKAPKLLIYAASTLQSGVPSRFSGSGSGTEFTLTISSLQPEDFATYYCQQLNSYPPTFGQGTKVEIK
Output: 7.5
